- protocol: Solubility Studies in solvents
- Type: physicochemical
- conditionDetails: acetonitrile, 25 °C, organic solvent or mixture, thermodynamic from solid, Acetonitrile, about 25 °C; read-out: Approximate Solubility
measuredEndpoint: solubility

Lookup result for CCOc1cc(C(CS(C)(=O)=O)N2C(=O)c3cccc(NC(C)=O)c3C2=O)ccc1OC (single isomer, unassigned; (+)) [Form B] ; measured solubility: > 50 mg/mL

----------
- protocol: Hygroscopicity studies (DVS moisture sorption/desorption)
- Format: physicochemical
- conditionDetails: RH increased from about 0% to about 95% RH
measuredEndpoint: mass change of the starting mass of the sample (moisture sorption)

• CCOc1cc(C(CS(C)(=O)=O)N2C(=O)c3cccc(NC(C)=O)c3C2=O)ccc1OC (single isomer, unassigned; (+)) [Form A] = about 0.4%
• CCOc1cc(C(CS(C)(=O)=O)N2C(=O)c3cccc(NC(C)=O)c3C2=O)ccc1OC (single isomer, unassigned; (+)) [Form G] = about 0.4%

Hello, the source for this data is patent EP2276483B1, in case you need it.
